Target: A2A receptor (Homo sapiens)
Construct: host or cells: HEK-293
Assay: Inhibition of cAMP production in HEK cells (LANCE Ultra cAMP, TR-FRET)
Type: cell-based
Details: HEK-293 cells with stable transfection of A2A receptor, normal stimulation buffer, 3 nM NECA as agonist, 0.1% BSA, read-out: IC50 (nM) (3 nM NECA as agonist, 0.1% BSA)
Recorded IC50 for the following compounds
measured.attribute: IC50 (nM)

INSERT INTO assay_data (structure_smiles, measured_attribute, val) VALUES
  ('Nc1nc(NCCN2CCN(c3ccc(C(=O)N4CC[S+]([O-])CC4)cc3F)CC2)nc2nc(-c3ccco3)nn12', 'IC50', 0.5),
  ('Nc1nc(NCCN2CCN(c3ccc(O[C@H]4CC[S@@+]([O-])CC4)cc3F)CC2)nc2nc(-c3ccco3)nn12', 'IC50', 0.8),
  ('Cn1c(=O)n(CCN2CCN(c3cc(OCC[S@@+](C)[O-])c(F)cc3F)CC2)c2nc(N)n3nc(-c4ccco4)nc3c21', 'IC50', 0.3);

* * *

Recorded log10 IC50 for the following compounds
Target: A2A receptor (Homo sapiens, UniProt P29274)
Construct: host or cells: HEK-293
Sequence (P29274 whole entry): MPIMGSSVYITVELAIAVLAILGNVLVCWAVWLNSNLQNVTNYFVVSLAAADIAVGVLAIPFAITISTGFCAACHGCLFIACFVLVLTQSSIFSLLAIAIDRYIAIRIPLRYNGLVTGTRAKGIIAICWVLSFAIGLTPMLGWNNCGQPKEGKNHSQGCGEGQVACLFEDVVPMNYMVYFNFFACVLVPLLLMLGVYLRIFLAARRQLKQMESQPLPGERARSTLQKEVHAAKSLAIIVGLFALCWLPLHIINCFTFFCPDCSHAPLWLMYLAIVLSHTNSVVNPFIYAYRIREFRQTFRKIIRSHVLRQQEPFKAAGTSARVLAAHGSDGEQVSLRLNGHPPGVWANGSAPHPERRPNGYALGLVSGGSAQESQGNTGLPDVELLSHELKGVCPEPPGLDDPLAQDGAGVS
Assay: Inhibition of cAMP production in HEK cells (LANCE Ultra cAMP, TR-FRET)
Assay type: cell-based
Conditions: HEK-293 cells with stable transfection of A2A receptor, normal stimulation buffer, 3 nM NECA as agonist, 0.1% BSA, read-out: IC50 (nM) (3 nM NECA as agonist, 0.1% BSA)
measured.attribute: log10 IC50 (log10 of the value in nM)

INSERT INTO measurements (compound, val) VALUES
  ('Nc1nc(NCCN2CCN(c3cc(O[C@H]4CC[S@@+]([O-])CC4)c(F)cc3F)CC2)nc2nc(-c3ccco3)nn12', -0.15),
  ('Cn1c(=O)n(CCN2CCN(c3cc(OCC[S@+](C)[O-])c(F)cc3F)CC2)c2nc(N)n3nc(-c4ccco4)nc3c21', -0.52),
  ('Cn1c(=O)n(CCN2CCN(c3ccc(OCC[S+](C)[O-])cc3F)CC2)c2nc(N)n3nc(-c4ccco4)nc3c21 (stereo not shown)', -0.40),
  ('Cn1c(=O)n(CCN2CCN(c3cc(OCCS(C)(=O)=O)c(F)cc3F)CC2)c2nc(N)n3nc(-c4ccco4)nc3c21', -0.30),
  ('Cn1c(=O)n(CCN2CCN(c3cc(OC4CCNC4=O)c(F)cc3F)CC2)c2nc(N)n3nc(-c4ccco4)nc3c21 (stereo not shown)', -0.40),
  ('CN(CCN1CCN(c2cc(OCC[S@@+](C)[O-])c(F)cc2F)CC1)c1nc(N)n2nc(-c3ccco3)nc2n1', -0.22),
  ('C[S@@+]([O-])c1cc(N2CCN(CCNc3nc(N)n4nc(-c5ccco5)nc4n3)CC2)c(F)cc1F', 0.87);

* * *

Target: A2A receptor (Homo sapiens)
Construct: host or cells: HEK-293
Assay: Inhibition of cAMP production in HEK cells (LANCE Ultra cAMP, TR-FRET)
Format: cell-based
Settings: HEK-293 cells with stable transfection of A2A receptor, normal stimulation buffer, 3 nM NECA as agonist, 0.1% BSA, read-out: IC50 (nM) (3 nM NECA as agonist, 0.1% BSA)
Doc: threshold 0.5 nM (exclusive). Items with IC50 beneath it return met; others return not met.

INSERT INTO results (compound, discrete_label) VALUES
  ('C[S@+]([O-])CCOc1cc(N2CCN(CCNc3nc(N)n4nc(-c5ccco5)nc4n3)CC2)c(F)cc1F [Compound 10]', 'met'),
  ('CS(=O)(=O)CCOc1cc(N2CCN(CCNc3nc(N)n4nc(-c5ccco5)nc4n3)CC2)c(F)cc1F [Compound 6]', 'not met'),
  ('C[S@@+]([O-])CCOc1cc(N2CCN(CCNc3nc(N)n4nc(-c5ccco5)nc4n3)CC2)c(F)cc1F [Compound 11]', 'met'),
  ('C[S@+]([O-])CCOc1cc(N2CCN(CCn3ncc4c3nc(N)n3nc(-c5ccco5)nc43)CC2)c(F)cc1F [Compound 12]', 'met'),
  ('CNC(=O)c1cc(N2CCN(CCn3ncc4c3nc(N)n3nc(-c5ccco5)nc43)CC2)c(F)cc1F [Compound 4]', 'met'),
  ('C[S@+]([O-])c1cc(N2CCN(CCNc3nc(N)n4nc(-c5ccco5)nc4n3)CC2)c(F)cc1F [Compound 17]', 'not met');
